Where do the numbers come from? From patent US4366143A.

# Test system: solid phase T4 specific antibody
# EXPERIMENT_SUMMARY: Binding of labelled T4 derivatives to solid phase T4 antibody with and without thiomersal (Example 7)
# Set-up: species or system sheep
# CONDITION: Thiomersal present; 125I-labelled T4 derivative
Threshold check on % of T4 derivative bound to antibody: strictly below 50% is Yes; on or above 50% is No.

I'd appreciate it if you could check whether CC(=O)N[C@@H](Cc1cc(I)c(Oc2cc(I)c(O)c(I)c2)c(I)c1)C(=O)O [L-T4/F, N-Acetyl-L-T4] has % of T4 derivative bound to antibody smaller than 50%. No

###

Below, each entry is listed with its recorded % of T4 derivative bound to antibody.
# Tested on: solid phase T4 specific antibody
# EXPERIMENT_SUMMARY: Binding of labelled T4 derivatives to solid phase T4 antibody with and without thiomersal (Example 7)
# Parameters: species or system sheep
# CONDITION: Thiomersal present; 125I-labelled T4 derivative
State the answer as a number, implicitly in %.

Past entries and their recorded results:
> print(dat)
                                   molecule  numeric.value
1  CC(=O)N[C@@H](Cc1cc(I)c(Oc2cc(I)c(O)c(I)c2)c(I)c1)C(=O)N(C)C [L-T4/M, N-Acetyl-L-T4-dimethylamide]             50
2  COC(=O)[C@@H](Cc1cc(I)c(Oc2cc(I)c(O)c(I)c2)c(I)c1)NC(C)=O [D-T4/A, N-Acetyl D-T4-methylester]             38
3  N[C@@H](Cc1cc(I)c(Oc2cc(I)c(O)c(I)c2)c(I)c1)C(=O)O [L-T4, thyroxine, reference compound]             50
4  CCNC(=O)[C@H](Cc1cc(I)c(Oc2cc(I)c(O)c(I)c2)c(I)c1)NC(C)=O [L-T4/L, N-Acetyl-L-T4-monoethylamide]             60
5  N[C@H](Cc1cc(I)c(Oc2cc(I)c(O)c(I)c2)c(I)c1)C(=O)O [D-T4, D-Thyroxine]             50

Now turn to the next molecule.
Data request, read-out % of T4 derivative bound to antibody, for COC(=O)[C@H](Cc1cc(I)c(Oc2cc(I)c(O)c(I)c2)c(I)c1)NC(C)=O [L-T4/A, N-Acetyl-L-T4-methylester] 40
